Documented pIC50 across a set of compounds
system: 935938-334-R-J1-PDC spheroids with HUVEC/MSC, viability; assay: Anticancer human tumor 935938-334-R-J1-PDC patient-derived small intestine adenocarcinoma cell line growth inhibition [PI3K]; conditions: curve of first compound; second compound 10 µM
pIC50: −log10 of the molar value.

- compound: "CC(Cn1ccc(-c2ccc(C#N)c(Cl)c2)n1)NC(=O)c1cc(C(C)O)[nH]n1 (stereo not drawn) + CC(Nc1ncnc2nc[nH]c12)c1cc2cccc(Cl)c2c(=O)n1-c1ccccc1"
  pIC50: "< 5.00"
- compound: "Cn1ncc(Cl)c1-c1cc(C(=O)NC(CN)Cc2cccc(F)c2)sc1Cl (stereo not drawn) + Cc1nc(NC(=O)N2CCCC2C(N)=O)sc1-c1ccnc(C(C)(C)C(F)(F)F)c1"
  pIC50: "> 7.50"

Now for a further compound.
Prompt line: Record CNC(=O)c1ccc(N2C(=S)N(c3ccc(C#N)c(C(F)(F)F)c3)C(=O)C2(C)C)cc1F + CC(Nc1ncnc2nc[nH]c12)c1cc2cccc(Cl)c2c(=O)n1-c1ccccc1 : what is its pIC50 with 935938-334-R-J1-PDC spheroids with HUVEC/MSC, viability?
Response line: < 5.00

###

test system: 935938-334-R-J1-PDC spheroids with HUVEC/MSC, viability; assay: Anticancer human tumor 935938-334-R-J1-PDC cell line growth inhibition [PI3K]; details: second compound 0.1 µM; first compound 0.1 µM; stronger effect = lower value;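 further: compound exposure lasted seven days before viability was read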;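 on viability, T/C: percent of vehicle DMSO treated spheroid viability so 100% = untreated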
The label is 1 (yes) for viability, T/C below 50% and 0 (no) for viability, T/C equal to or exceeding 50%.

Solved entries:
- compound: "CC(C)NCC(C(=O)N1CCN(c2ncnc3c2C(C)CC3O)CC1)c1ccc(Cl)cc1 (stereo not given) + Cc1nc(NC(=O)N2CCCC2C(N)=O)sc1-c1ccnc(C(C)(C)C(F)(F)F)c1"
  study target: "935938-334-R-J1-PDC spheroids with HUVEC/MSC, viability"
  group label: "0 (no)"
- compound: "CC(Cn1ccc(-c2ccc(C#N)c(Cl)c2)n1)NC(=O)c1cc(C(C)O)[nH]n1 (stereo not given) + COc1c(OCCCN2CCOCC2)ccc2c3n(c(=NC(=O)c4cnc(N)nc4)nc12)CCN3"
  study target: "935938-334-R-J1-PDC spheroids with HUVEC/MSC, viability"
  group label: "0 (no)"

Turning now to a further record.
Prompt line: Quick check: viability, T/C of CC(=O)c1c(C)c2cnc(Nc3ccc(N4CCNCC4)cn3)nc2n(C2CCCC2)c1=O + Cc1nc(NC(=O)N2CCCC2C(N)=O)sc1-c1ccnc(C(C)(C)C(F)(F)F)c1 under 50%?
Response line: 0 (no)

###

In this section, each of the compounds is paired with its reported viability, T/C.
tested on: 935938-334-R-J1-PDC spheroids with HUVEC/MSC, viability; assay: Anticancer human tumor 935938-334-R-J1-PDC cell line growth inhibition [PI3K]; conditions: second compound 0.0316 µM; first compound 1 µM; stronger effect = lower value;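 further: compound exposure lasted seven days before viability was read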;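 on viability, T/C: percent of vehicle DMSO treated spheroid viability so 100% = untreated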
Just the number please, in %, no unit attached.

Below: 6 compounds and their reported viability, T/C.
- compound: "CCCS(=O)(=O)Nc1ccc(F)c(C(=O)c2c[nH]c3ncc(-c4ccc(Cl)cc4)cc23)c1F + Cc1nc(NC(=O)N2CCCC2C(N)=O)sc1-c1ccnc(C(C)(C)C(F)(F)F)c1"
  measurement label: "viability, T/C"
  test value: 97.6
- compound: "C#Cc1c(F)ccc2cc(O)cc(-c3ncc4c(N5CC6CCC(C5)N6)nc(OCC56CCCN5CC(F)C6)nc4c3F)c12 (configuration not stated) + COc1c(OCCCN2CCOCC2)ccc2c3n(c(=NC(=O)c4cnc(N)nc4)nc12)CCN3"
  measurement label: "viability, T/C"
  test value: 44.4
- compound: "CC1(C)CCC(CN2CCN(c3ccc(C(=O)NS(=O)(=O)c4ccc(NCC5CCOCC5)c([N+](=O)[O-])c4)c(Oc4cnc5[nH]ccc5c4)c3)CC2)=C(c2ccc(Cl)cc2)C1 + CC(Nc1ccc2c(c1)OCCn1cc(N3C(=O)OCC3C(F)F)nc1-2)C(N)=O"
  measurement label: "viability, T/C"
  test value: 103
- compound: "CNC(=O)c1ccc(N2C(=S)N(c3ccc(C#N)c(C(F)(F)F)c3)C(=O)C2(C)C)cc1F + CC(Nc1ccc2c(c1)OCCn1cc(N3C(=O)OCC3C(F)F)nc1-2)C(N)=O"
  measurement label: "viability, T/C"
  test value: 110
- compound: "Cn1nccc1Nc1nccc(-c2ccn(C(CO)c3ccc(Cl)c(F)c3)c(=O)c2)n1 (configuration not stated) + Cc1nc(NC(=O)N2CCCC2C(N)=O)sc1-c1ccnc(C(C)(C)C(F)(F)F)c1"
  measurement label: "viability, T/C"
  test value: 48.5
- compound: "CC1(C)CCC(Nc2ncc(C(F)(F)F)c(-c3c[nH]c4c(P(C)(C)=O)c(C#N)ccc34)n2)CN1 (configuration not stated) + Cc1nc(NC(=O)N2CCCC2C(N)=O)sc1-c1ccnc(C(C)(C)C(F)(F)F)c1"
  measurement label: "viability, T/C"
  test value: 33.7

Prompt line: # viability, T/C lookup, item Cn1nccc1Nc1nccc(-c2ccn(C(CO)c3ccc(Cl)c(F)c3)c(=O)c2)n1 (configuration not stated) + COc1c(OCCCN2CCOCC2)ccc2c3n(c(=NC(=O)c4cnc(N)nc4)nc12)CCN3
Response line: 46.1

###

tested on: 935938-334-R-J1-PDC spheroids with HUVEC/MSC, viability; assay: Anticancer human tumor 935938-334-R-J1-PDC cell line growth inhibition [PI3K]; conditions: second compound 0.1 µM; first compound 0.0316 µM; stronger effect = lower value;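 further: compound exposure lasted seven days before viability was read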;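 on viability, T/C: percent of vehicle DMSO treated spheroid viability so 100% = untreated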
So basically, if viability, T/C comes in under 90% it's criterion met, and if it's 90% or more it's criterion not met.

Sample answers from the record:
- compound: "Cn1ncc(Cl)c1-c1cc(C(=O)NC(CN)Cc2cccc(F)c2)sc1Cl (stereo not given) + CC(Nc1ccc2c(c1)OCCn1cc(N3C(=O)OCC3C(F)F)nc1-2)C(N)=O"
  group label: "criterion met"
- compound: "Cn1nccc1Nc1nccc(-c2ccn(C(CO)c3ccc(Cl)c(F)c3)c(=O)c2)n1 (stereo not given) + Cc1nc(NC(=O)N2CCCC2C(N)=O)sc1-c1ccnc(C(C)(C)C(F)(F)F)c1"
  group label: "criterion not met"
- compound: "CC(=O)c1c(C)c2cnc(Nc3ccc(N4CCNCC4)cn3)nc2n(C2CCCC2)c1=O + COc1c(OCCCN2CCOCC2)ccc2c3n(c(=NC(=O)c4cnc(N)nc4)nc12)CCN3"
  group label: "criterion met"
- compound: "C[C@@H](NC(=O)c1ncnc(N)c1Cl)c1ncc(C(=O)Nc2cc(C(F)(F)F)c(Cl)cn2)s1 + CC(Nc1ncnc2nc[nH]c12)c1cc2cccc(Cl)c2c(=O)n1-c1ccccc1"
  group label: "criterion not met"
- compound: "CC1(C)CCC(CN2CCN(c3ccc(C(=O)NS(=O)(=O)c4ccc(NCC5CCOCC5)c([N+](=O)[O-])c4)c(Oc4cnc5[nH]ccc5c4)c3)CC2)=C(c2ccc(Cl)cc2)C1 + CC(Nc1ncnc2nc[nH]c12)c1cc2cccc(Cl)c2c(=O)n1-c1ccccc1"
  group label: "criterion not met"

Prompt line: Lab log: compare recorded viability, T/C with 90%; is it strictly lower for C=CC(=O)N1CCN(c2nc(=O)n(-c3c(C)ccnc3C(C)C)c3nc(-c4c(O)cccc4F)c(F)cc23)C(C)C1 (stereo not given) + Cc1nc(NC(=O)N2CCCC2C(N)=O)sc1-c1ccnc(C(C)(C)C(F)(F)F)c1 ?
Response line: criterion met

Prompt line: Further, for C[C@@H](NC(=O)c1ncnc(N)c1Cl)c1ncc(C(=O)Nc2cc(C(F)(F)F)c(Cl)cn2)s1 + COc1c(OCCCN2CCOCC2)ccc2c3n(c(=NC(=O)c4cnc(N)nc4)nc12)CCN3 ?
Response line: criterion met

Prompt line: Queued: CC(=O)c1c(C)c2cnc(Nc3ccc(N4CCNCC4)cn3)nc2n(C2CCCC2)c1=O + Cc1nc(NC(=O)N2CCCC2C(N)=O)sc1-c1ccnc(C(C)(C)C(F)(F)F)c1
Response line: criterion met

###

tested on: 935938-334-R-J1-PDC spheroids with HUVEC/MSC, viability; assay: Anticancer human tumor 935938-334-R-J1-PDC cell line growth inhibition [PI3K]; settings: second compound 0.316 µM; first compound 0.01 µM; stronger effect = lower value;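 further: compound exposure lasted seven days before viability was read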;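 on viability, T/C: percent of vehicle DMSO treated spheroid viability so 100% = untreated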
viability, T/C under 60% gets Yes, anything at or over 60% gets No.

Here are 3 compounds together with their reported answers.
- compound: "CCN1CCN(Cc2ccc(Nc3ncc(F)c(-c4cc(F)c5nc(C)n(C(C)C)c5c4)n3)nc2)CC1 + Cc1nc(NC(=O)N2CCCC2C(N)=O)sc1-c1ccnc(C(C)(C)C(F)(F)F)c1"
  group label: "No"
- compound: "Cn1ncnc1[C@H]1c2n[nH]c(=O)c3cc(F)cc(c23)N[C@@H]1c1ccc(F)cc1 + COc1c(OCCCN2CCOCC2)ccc2c3n(c(=NC(=O)c4cnc(N)nc4)nc12)CCN3"
  group label: "Yes"
- compound: "CCN1CCN(Cc2ccc(Nc3ncc(F)c(-c4cc(F)c5nc(C)n(C(C)C)c5c4)n3)nc2)CC1 + CC(Nc1ncnc2nc[nH]c12)c1cc2cccc(Cl)c2c(=O)n1-c1ccccc1"
  group label: "No"

With those in mind, consider the next compound.
Prompt line: Does this compound meet the criterion viability, T/C < 60%? CCN1CCN(Cc2ccc(Nc3ncc(F)c(-c4cc(F)c5nc(C)n(C(C)C)c5c4)n3)nc2)CC1 + COc1c(OCCCN2CCOCC2)ccc2c3n(c(=NC(=O)c4cnc(N)nc4)nc12)CCN3
Response line: Yes
